# Test system: NCI-H522 lung
# test-name: NCI-60 one-dose screen, 48 h
# test-parameters: 10 µM unless noted
About 83,000 compounds went through this panel and 20% of them were active in at least one assay; those are over-represented in the sample as a whole. Active and inactive are the calls of the source. How the source made its calls: active means growth percent below 10; inactive means the rest.
Just give me one of these, please: label 1 (active), label 0 (inactive)

# example entries with known answers
COc1cc(Cn2c(-c3nonc3N)nc3ccccc32)ccc1C    label 1
COc1cccc2cc(-c3cc4ccccc4[nH]3)/c(=N/C(=S)Nc3ccccc3)oc12    label 0
CCN(CC)CCCC(C)N=c1cc(Nc2cc(=NC(C)CCCN(CC)CC)c3cc(OC)ccc3o2)oc2ccc(OC)cc12 (stereo unspecified)    label 1
c1cncc(CNc2ccccc2-c2nnc(Nc3ccc4c(c3)OCCO4)o2)c1    label 1
NC(=O)c1c(NC(=O)c2ccc3c(c2)OCO3)sc2c1CCC(=O)C2    label 1

Query: Hi, do you know how "CC1CCN(C(=O)CSc2nc3sc4c(c3c(=O)[nH]2)CCCC4)CC1" came out in this test?
Reply: label 0

Query: Hi, do you know how "CCCCCC(=O)OCc1ccccc1" came out in this test?
Reply: label 0

====

Parameter growth: see the listing below.
# System: SK-MEL-28 melanoma
# test-name: NCI-60 one-dose screen, 48 h (100 = growth as untreated, 0 = no growth, -100 = all killed)
# test-parameters: 10 µM unless noted
Compounds without any hit were thinned out: in the full panel of roughly 83,000, 20% have a hit.
Provide only the numeric value, understood in %.

Use the examples below as a reference point.
COC(=O)c1ccc(C)cc1    113
Cc1oc2ncnc(Nc3ccccc3)c2c1C(=O)NCCO    98.9
NC(C(=O)O)C(O)c1ccc(OCc2ccccc2)c(OCc2ccccc2)c1 (stereo unspecified)    110
O=C(O)c1ccc(-n2cc(CNc3ccc(C(F)(F)F)cc3)c(-c3ccccc3)n2)cc1    95.2
COC(=O)C(CC(=O)c1ccc(-c2ccccc2)cc1)c1ccccc1 (stereo unspecified)    70.9

Query: Let me know recorded growth for "Cn1c(C(N)=O)cc2c1-c1nc(NC3CCCCC3)ncc1CCC2" , thanks.
Reply: 97.4

====

# Tested on: HS 578T breast
# test-name: NCI-60 one-dose screen, 48 h
# test-parameters: 10 µM unless noted
# Experimental: Growth inhibition of the HS 578T human tumor cell line is measured as a screen for anti-cancer activity. Cells are grown in 96 well plates and exposed to the test compound for 48 hours. Compounds are tested at a single concentration, which is 10^-5 M for most compounds. The reported endpoint is percent growth (GI% or GIPRCNT), where numbers from 0 - 100% represent growth inhibition, and numbers from -100% - 0 represent cell death. For example, a value of 40 represents 60% growth inhibition. […]
About 83,000 compounds went through this panel and 20% of them were active in at least one assay; those are over-represented in the sample as a whole. Activity calls are given as the source filed them. The calls were made as follows: active = growth percent below 10; inactive = the rest.
Just give me one of these, please: TRUE = active, FALSE = inactive

C=CCc1cc(Cl)cc2c(OC(C)=O)c(C(C)=O)c(-c3ccccc3)nc12    FALSE
CC(=O)N1Cc2ccccc2C(C)Cc2cc(Cl)ccc21 (stereo not given)    FALSE
CCOC(=O)CC/C(C)=N\Nc1ccc([N+](=O)[O-])cc1    FALSE
O=Nc1c(-c2c(O)[nH]c3ccc([N+](=O)[O-])cc23)[nH]c2ccc(O)cc12    TRUE
O=C(COc1ccccc1)N1N=C(c2ccc(Cl)cc2)CC1c1c[nH]c2ccccc12 (stereo not given)    FALSE

Query: Hi, do you know how "CN(C)c1ccc(-c2ccc(-c3ccc(C(=N)N)cn3)o2)cc1" came out in this test?
Reply: TRUE

Query: Hi, do you know how "CC(C)(C)c1cc(-c2nc3ccc(N4CCN(CCO)CC4)cc3[nH]2)cc(C(C)(C)C)c1O" came out in this test?
Reply: FALSE

Query: Hi, do you know how "Cc1c(C(=O)NCc2ccccc2)[n+](=O)c2cc(F)ccc2n1[O-]" came out in this test?
Reply: FALSE

Query: Hi, do you know how "COc1ccc2c(c1)NC(=O)CN2c1nc(NC2CC2)nc2ccccc12" came out in this test?
Reply: FALSE

Query: Hi, do you know how "O=C(Nc1ccc(I)cc1)c1cccc([N+](=O)[O-])c1O" came out in this test?
Reply: FALSE
